Can you tell me IC50 for the items I'm about to list?
target or test system: mushroom tyrosinase
experiment: Mushroom tyrosinase inhibitory assay (L-tyrosine or L-DOPA as substrate)
Type: biochemical
test parameters: substrate L-DOPA; mean ± SEM of triplicate experiments; read-out: IC50 (μM), L-DOPA as substrate (diphenolase / dopa oxidase)
One number for each entry, in µM.

molecule: COc1ccc(/C=C/C(=O)c2cccs2)cc1O [1e]
measured: 28.7

molecule: O=C(/C=C/c1ccc(O)c(Br)c1)c1cccs1 [1g]
measured: 112

molecule: O=C(/C=C/c1ccc(O)cc1)c1cccs1 [1a]
measured: 60.1

molecule: O=C(/C=C/c1ccc(O)cc1O)c1cccs1 [1c]
measured: 0.93

Ask: For the molecule O=C(/C=C/c1ccc(O)c(O)c1)c1cccs1 [1b] , what IC50 is on record?
Reply: 103
